pIC50: −log10 of the molar value.
Dear all, I have gathered published pIC50 values for Cathepsin B (Rattus norvegicus, UniProt P00787); the list follows.
measuredAttribute: pIC50

a. O=C(CCc1ccccc1)N[C@@H](Cc1cccc(F)c1)C(=O)N[C@@H]1C(=O)N2CCS(=O)(=O)[C@@H]12
b. CC(C)C[C@H](NC(=O)OCc1ccccc1)C(=O)N[C@@H]1C(=O)N2CCO[C@H]12
c. O=C(N[C@@H](Cc1ccccc1)C(=O)N[C@@H]1C(=O)N2CCS(=O)(=O)[C@H]12)OCc1ccccc1
d. CCC(C)[C@H](NC(=O)[C@H]1O[C@@H]1C(=O)O)[C@H](O)c1ccccc1 (stereo partly shown)
Query: Put the compounds in ascending order of pIC50. // rank by listing labels in the order requested
Response: b, c, a, d

====

Consider the following IC50 data for Cathepsin B (Rattus norvegicus, UniProt P00787), collected from several reports.
measuredAttribute: IC50 (µM)

Examples with their reported IC50 follow.
O=C(N[C@@H](Cc1ccccc1)C(=O)N[C@@H]1C(=O)N2CC[S+]([O-])[C@@H]12)OCc1ccccc1 (some centres unmarked) ... 16.4
CC(C)C[C@H](NC(=O)[C@H]1O[C@@H]1C(=O)O)[C@H](O)c1ccccc1 ... 0.12
CC(C)C[C@@H](CO)NC(=O)[C@H]1O[C@@H]1C(=O)O ... 0.1
O=C(CCc1ccccc1)NC(Cc1ccc2ccccc2c1)C(=O)NC1C(=O)NC1SCCO (centres unmarked) ... 10.1
O=C(N[C@@H](Cc1cccnc1)C(=O)N[C@@H]1C(=O)N2CCS(=O)(=O)[C@@H]12)OCc1ccccc1 ... 1.3

P. COC(=O)[C@@H]1N2C(=O)[C@@H](NC(=O)[C@H](Cc3ccccc3)NC(=O)OCc3ccccc3)[C@H]2S(=O)(=O)C1(C)C
Q. CC(=O)O[C@@H]1NC(=O)[C@H]1NC(=O)[C@H](Cc1ccc2ccccc2c1)NC(=O)OCc1ccccc1
Query: Form: Entry with minimum IC50 (choose one): P / Q Provide the label of your selected option as the answer.
Response: Q

====

pIC50: −log10 of the molar value.
Listing of pIC50 toward Cathepsin B (Rattus norvegicus), each taken from a published source.
measuredAttribute: pIC50

CC(C)C[C@@H](COCc1ccccc1)NC(=O)[C@H]1O[C@@H]1C(=O)O ... 7.55
O=C(N[C@@H](Cc1ccccc1)C(=O)N[C@@H]1C(=O)N2CCS(=O)(=O)[C@@H]12)OCc1ccccc1 ... 6.46
CC(C)C[C@H](NC(=O)[C@H]1O[C@@H]1C(=O)O)[C@H](OCc1ccccc1)c1ccccc1 ... 7.39
O=C(N[C@@H](Cc1ccccc1)C(=O)N[C@@H]1C(=O)N2CCO[C@@H]12)OCc1ccccc1 ... 4.91

A. N[C@@H](Cc1ccc(OC2NC(=O)[C@H]2NC(=O)[C@H](Cc2ccc3ccccc3c2)NC(=O)NCc2ccccc2)cc1)C(=O)O (stereo partly shown)
B. O=C(CCc1ccccc1)N[C@@H](Cc1ccc2ccccc2c1)C(=O)N[C@@H]1C(=O)NC1OC1CCCCC1 (stereo partly shown)
Query: Look at A and B . Which one has the lower recorded pIC50 number? Let me know the label of the one you choose.
Response: A
(A: 5.08, B: 5.71)

====

For reference, the following pIC50 results for Cathepsin B (Rattus norvegicus) were taken from various sources.
pIC50: −log10 of the molar value.

Look over these answered cases.
O=C(N[C@@H](Cc1ccccc1)C(=O)N[C@@H]1C(=O)N2CCCS(=O)(=O)[C@H]12)OCc1ccccc1 ... < 4.30
CC(OC(C)(C)C)[C@H](NC(=O)OCc1ccccc1)C(=O)N[C@@H]1C(=O)N[C@@H]1Oc1ccccc1 (stereo partly drawn) ... < 4.30

Query: Which value of pIC50 has been reported for C[C@H](NC(=O)OCc1ccccc1)C(=O)N[C@@H]1C(=O)N2CCO[C@H]12 in the records?
Response: < 4.30
